Reference source for all entries: ChEMBL document CHEMBL1132212

- Protocol Description: Maximum plasma concentration (Cmax) was determined in rats after intraduodenal administration of the drug
- Assay type: ADME, organism-based
- Parameters: route intraduodenal
- Test Settings: rat
# Cmax values compiled below
Quantity Name: Cmax (nM)

>>> df
                                test_smiles  quantity_name  endpoint_value
0  CCc1c(O)cccc1C(=O)N[C@@H](Cc1ccccc1)[C@H](O)C(=O)N1CSC[C@H]1C(=O)NC(C)(C)C           Cmax            1730
1  Cc1c(O)cccc1C(=O)N[C@@H](Cc1ccccc1)[C@H](O)C(=O)N1CSC[C@H]1C(=O)NC(C)(C)C           Cmax            2910
2  Cc1c(O)cccc1C(=O)N[C@@H](Cc1ccccc1)[C@H](O)C(=O)N1CSC(C)(C)[C@H]1C(=O)NC(C)(C)C           Cmax            2600
3  CCc1c(O)cccc1C(=O)N[C@@H](Cc1ccccc1)[C@H](O)C(=O)N1CSC(C)(C)[C@H]1C(=O)NC(C)(C)C           Cmax            1160

====

# Cmax values compiled below
- Protocol Description: Maximum plasma concentration (Cmax) was determined in rats after intraduodenal administration of the drug
- Assay type: ADME, organism-based
- Design: route intraduodenal
- Test Settings: rat
Quantity Name: Cmax (nM)

In [3]: df
Out[3]:
                                test_smiles  unit_abbrev  endpoint_value
0  Cc1ccccc1CNC(=O)[C@@H]1CSCN1C(=O)[C@@H](O)[C@H](Cc1ccccc1)NC(=O)c1cccc(O)c1C           nM             770
1  CCc1c(O)cccc1C(=O)N[C@@H](Cc1ccccc1)[C@H](O)C(=O)N1CSC(C)(C)[C@H]1C(=O)NCc1ccccc1C           nM             230
2  Cc1ccccc1CNC(=O)[C@H]1N(C(=O)[C@@H](O)[C@H](Cc2ccccc2)NC(=O)c2cccc(O)c2C)CSC1(C)C           nM             700

====

- Protocol Description: Time of maximum plasma concentration (Tmax) was determined in dogs fed after oral administration of 25 mg/kg of the compound.
- Format: ADME, organism-based, Canis lupus familiaris
- Design: dose 25 mg/kg, route oral
- Test Settings: dog
Quantity Name: Tmax

                                test_smiles  endpoint_value
0  Cc1ccccc1CNC(=O)[C@H]1N(C(=O)[C@@H](O)[C@H](Cc2ccccc2)NC(=O)c2cccc(O)c2C)CSC1(C)C           1.5 h

====

# bioavailability values compiled below
- Protocol Description: Bioavailability in rat after i.d. administration
- Format: ADME, organism-based
- Test Settings: in vivo
Quantity Name: bioavailability (%)

>>> df
                                test_smiles  unit_abbrev  endpoint_value
0  Cc1c(O)cccc1C(=O)N[C@@H](Cc1ccccc1)[C@H](O)C(=O)N1CSC[C@H]1C(=O)NC(C)(C)C            %            33.9
1  Cc1c(O)cccc1C(=O)N[C@@H](Cc1ccccc1)[C@H](O)C(=O)N1CSC(C)(C)[C@H]1C(=O)NC(C)(C)C            %            39.4
2  CCc1c(O)cccc1C(=O)N[C@@H](Cc1ccccc1)[C@H](O)C(=O)N1CSC[C@H]1C(=O)NC(C)(C)C            %            36.2
3  Cc1ccccc1CNC(=O)[C@H]1N(C(=O)[C@@H](O)[C@H](Cc2ccccc2)NC(=O)c2cccc(O)c2C)CSC1(C)C            %            41.6
